B1: VH:VL chains; a variant is named by its letters at X, in order (parent)
chain 1: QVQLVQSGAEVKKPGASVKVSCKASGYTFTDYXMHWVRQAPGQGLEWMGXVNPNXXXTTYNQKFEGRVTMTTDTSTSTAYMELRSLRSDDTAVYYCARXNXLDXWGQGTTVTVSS
chain 2: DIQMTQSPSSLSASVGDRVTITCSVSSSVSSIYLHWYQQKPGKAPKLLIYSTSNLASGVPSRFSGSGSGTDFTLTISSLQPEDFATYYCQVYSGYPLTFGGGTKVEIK

Variants of: B1
Assay: yeast display scFab, FACS + sequencing
Conditions: with MET
The other results are listed elsewhere or left out. The true hit rate is not given.
MEASURED_ATTRIBUTE: antigen binding call

YKGKGAWS = binds
YKGKGSLF = binds
YKAGGFWF = no binding
VAGGDDVF = no binding
YTAGSALV = no binding
AATRNVGV = no binding
DRAGDSLD = no binding
DAGKGSVD = no binding
AKGRAAAS chain 1 D103N = no binding
YRAGDALD = binds

Exercise: Item under review: SRGGAAWA . Reported antigen binding call?
Key: no binding

Exercise: Any idea what antigen binding call was measured for VEKGGDWD ?
Key: no binding

Exercise: Recorded antigen binding call for VKRATVLA , please?
Key: no binding

Exercise: // lookup antigen binding call for VEAGDALV
Key: no binding

Exercise: So what does the record say about antigen binding call for YRERGALS ?
Key: binds

Exercise: Would you kindly share the measured antigen binding call for SEEGTDWY ?
Key: no binding

Exercise: Which value of antigen binding call has been reported for VRRRSSLA in the records?
Key: binds

Exercise: Which antigen binding call is listed for DRREDALD ?
Key: binds

Exercise: Need antigen binding call of SEARSALA , thanks.
Key: binds

Exercise: Requested field: antigen binding call. Item: DARENAGY
Key: no binding

Exercise: Look at this variant and give its reported antigen binding call. YAGRGDWF
Key: no binding

Exercise: Given AARADDAV , state its recorded antigen binding call.
Key: no binding

Exercise: What does the data say about its antigen binding call? Entry: DRAGDALD
Key: binds

Exercise: Bench note: what antigen binding call did ATGANAGD show?
Key: no binding

Exercise: // antigen binding call lookup, key: VEGGTDVV
Key: no binding

Exercise: Give the measured antigen binding call of VTKAASWV .
Key: no binding

Exercise: Item under review: DAGGGDWV . Reported antigen binding call?
Key: no binding

Exercise: Data request, read-out antigen binding call, for YRAGGYVD
Key: binds

Exercise: What value of antigen binding call has been recorded for this entry: DAARGDAA
Key: no binding

Source: the emibetuzumab library of Makowski et al. (2022)
